This collection of values is drawn from the kinase profiling compilation of Christmann-Franck et al. (2016).

Provide the recorded residual activity for the entries that follow.
- tested_on: CSK (human) (UniProt P41240)
- Sequence (P41240 whole entry, looked up): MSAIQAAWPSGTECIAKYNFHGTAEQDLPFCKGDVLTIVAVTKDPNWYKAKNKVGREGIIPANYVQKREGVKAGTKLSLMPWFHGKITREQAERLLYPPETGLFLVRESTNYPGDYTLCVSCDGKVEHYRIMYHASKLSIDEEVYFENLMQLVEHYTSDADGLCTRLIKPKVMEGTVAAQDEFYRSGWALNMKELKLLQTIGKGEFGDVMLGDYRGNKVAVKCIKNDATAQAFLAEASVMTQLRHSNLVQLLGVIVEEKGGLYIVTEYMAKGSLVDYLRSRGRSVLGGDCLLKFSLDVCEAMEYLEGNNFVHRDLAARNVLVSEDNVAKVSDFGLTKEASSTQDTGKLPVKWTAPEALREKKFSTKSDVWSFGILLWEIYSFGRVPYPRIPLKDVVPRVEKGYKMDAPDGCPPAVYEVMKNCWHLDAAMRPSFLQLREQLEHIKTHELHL
- test_protocol: radiometric filter-binding kinase assay
- conditions_used: compound 0.1 µM
Just the number please, in %, no unit attached.

Prompt: What residual activity value was documented for this compound, CC1=C(CO)C(=O)O[C@@H]([C@@H](C)[C@H]2CC[C@H]3[C@@H]4C[C@H]5O[C@]56[C@@H](O)C=CC(=O)[C@]6(C)C4CC[C@]23C)C1 (stereo not given in full) ?
Response: 112

Prompt: Could you tell me which residual activity is on file for `O=C(NCCCNc1nc(Nc2cccc(CN3CCOCC3)c2)ncc1C1CC1)C1CCC1` ?
Response: 98

Prompt: Fill in the blank: the reported residual activity of `NC(=O)c1cc(-c2ccnc(NC3CCCCC3)c2)nc(N2CCNCC2)c1` is ____.
Response: 113

Prompt: Look up residual activity: `O=C(Nc1ccccc1-c1cn2c(CN3CCNCC3)csc2n1)c1cnc2ccccc2n1`
Response: 97

Prompt: I have this compound here, `CCc1cncnc1N1CCN(Cc2nc3cc(C(F)(F)F)ccc3[nH]2)CC1` , and I need its recorded residual activity.
Response: 94

Prompt: // returns reported residual activity for input `O=C(Nc1nc2cc(C(F)(F)F)cc(NC3CC3)n2n1)c1cccnc1`
Response: 95

Prompt: // returns reported residual activity for input `O=C(N[C@@H](COc1ccc2[nH]c(=O)[nH]c2c1)c1ccccc1)c1cccn(Cc2ccc(F)c(F)c2)c1=O`
Response: 109

Prompt: Report residual activity for `C=CC(=O)N1CCC[C@@H](n2nc(-c3ccc(Oc4ccccc4)cc3)c3c(N)ncnc32)C1` please.
Response: 25

Prompt: Can you look up the measured residual activity of `c1ccc2c(-c3cnn4cc(-c5ccc(N6CCNCC6)cc5)cnc34)ccnc2c1` for me?
Response: 95

Prompt: I am curious: what residual activity value has been reported for `CNc1nc(-c2ccc3c(N)n[nH]c3c2)cc(N2C[C@@H](C(=O)NC3CCCCC3)CC[C@H]2C)n1` ?
Response: 104

* * *

- tested_on: HIPK1 (human)
- test_protocol: radiometric filter-binding kinase assay
- conditions_used: compound 10.0 µM
Give measured residual activity for each item. Keep answers brief.
The reply should be a number in %, with the unit left off.

Prompt: Field request: residual activity | item: `O=S(=O)(c1ccc(F)c2nonc12)N1CCN(c2ncc(C(F)(F)F)cc2Cl)CC1`
Response: 94

Prompt: What does the data say about its residual activity? Entry: `CNc1nc(-c2ccc3c(N)n[nH]c3c2)cc(N2C[C@@H](C(=O)NC3CCCCC3)CC[C@H]2C)n1`
Response: 112

Prompt: Any idea what its residual activity is? The compound is `O=C(Nc1ccccc1-c1cn2c(CN3CCNCC3)csc2n1)c1cnc2ccccc2n1`
Response: 91

Prompt: Please give the measured residual activity for this compound: `CCCC(CCC)C(=O)O`
Response: 84

Prompt: Sample `FC(F)(F)c1ccc(-c2ccc(Oc3cncc4sc(-c5nn[nH]n5)cc34)cc2)cc1` — what was its residual activity?
Response: 12

Prompt: Field request: residual activity | item: `Cc1nc(-c2ccc(OCC(C)C)c(C#N)c2)sc1C(=O)O`
Response: 95

Prompt: Please report the recorded residual activity for `NCC(=O)Nc1ccc(-n2nc(C(F)(F)F)cc2-c2ccc3c(ccc4ccccc43)c2)cc1` .
Response: 90

Prompt: # residual activity lookup, item `NC1(c2ccc(-c3nc4ccn5c(=O)[nH]nc5c4cc3-c3ccccc3)cc2)CCC1`
Response: 97

Prompt: Form field: reported residual activity of `NC(=O)c1ccc(-c2ccc(Oc3cncc4sc(-c5nn[nH]n5)cc34)cc2)cc1`
Response: 9

Prompt: Any idea what residual activity was measured for `Cc1ccc(=O)n(-c2ccccc2)c1` ?
Response: 103

Prompt: Tell me the measured residual activity of `NC(=O)c1cc2c(-c3cccc(-c4ccccc4)c3)cnc(N)c2s1` , please.
Response: 13

* * *

- tested_on: STK11 CAB39 STRADA (human) (UniProt Q9Y376+Q7RTN6+Q15831)
- Sequence (Q15831 whole entry, looked up): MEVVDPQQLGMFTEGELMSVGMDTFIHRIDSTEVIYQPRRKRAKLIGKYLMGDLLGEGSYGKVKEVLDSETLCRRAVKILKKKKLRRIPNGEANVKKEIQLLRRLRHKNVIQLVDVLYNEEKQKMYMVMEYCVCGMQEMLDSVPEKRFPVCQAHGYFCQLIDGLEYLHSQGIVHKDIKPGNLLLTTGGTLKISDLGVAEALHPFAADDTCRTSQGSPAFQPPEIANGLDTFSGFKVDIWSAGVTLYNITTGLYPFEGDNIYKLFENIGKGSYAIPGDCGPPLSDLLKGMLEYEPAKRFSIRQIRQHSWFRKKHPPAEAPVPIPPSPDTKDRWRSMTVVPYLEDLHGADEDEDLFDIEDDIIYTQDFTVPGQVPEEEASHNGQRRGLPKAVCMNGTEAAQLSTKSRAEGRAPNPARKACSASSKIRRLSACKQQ
- Sequence (Q7RTN6 whole entry, looked up): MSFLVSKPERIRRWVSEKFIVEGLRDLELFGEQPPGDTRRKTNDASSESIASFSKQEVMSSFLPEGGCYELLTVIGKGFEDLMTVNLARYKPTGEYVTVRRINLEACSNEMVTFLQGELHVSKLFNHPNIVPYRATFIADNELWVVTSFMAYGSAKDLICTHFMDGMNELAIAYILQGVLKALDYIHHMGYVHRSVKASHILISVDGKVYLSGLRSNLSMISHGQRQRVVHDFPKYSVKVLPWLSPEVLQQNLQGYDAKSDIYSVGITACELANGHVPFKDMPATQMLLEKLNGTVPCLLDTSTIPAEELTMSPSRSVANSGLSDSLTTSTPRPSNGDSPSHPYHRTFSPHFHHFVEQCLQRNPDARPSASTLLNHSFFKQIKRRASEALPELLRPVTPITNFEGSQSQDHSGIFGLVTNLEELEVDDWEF
- Sequence (Q9Y376 whole entry, looked up): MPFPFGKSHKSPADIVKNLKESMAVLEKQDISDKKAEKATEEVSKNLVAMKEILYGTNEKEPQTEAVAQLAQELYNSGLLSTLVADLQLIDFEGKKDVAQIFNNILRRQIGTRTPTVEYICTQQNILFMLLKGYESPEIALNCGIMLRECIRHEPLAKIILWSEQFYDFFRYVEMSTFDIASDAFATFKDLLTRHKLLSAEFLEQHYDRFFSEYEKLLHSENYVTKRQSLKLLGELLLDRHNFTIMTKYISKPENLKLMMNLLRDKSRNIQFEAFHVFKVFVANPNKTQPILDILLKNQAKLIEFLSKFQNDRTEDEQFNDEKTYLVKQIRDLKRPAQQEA
- test_protocol: radiometric filter-binding kinase assay
- conditions_used: compound 1.0 µM
So I've got a bunch of molecules here, and I need their residual activity values.
Value expressed in %; do not type the unit.

Prompt: residual activity for `COc1ccc(N(C(=O)Nc2c(C)cccc2C)c2cc(Nc3ccc(N4CCN(C)CC4)cc3)ncn2)c(OC)c1` ?
Response: 96

Prompt: Any idea what its residual activity is? The molecule is `CC(C)(C#N)c1ccc(N2C(=O)OCc3cnc4ccc(-c5cnc6ccccc6c5)cc4c32)cc1`
Response: 87

Prompt: If you can, please state the reported residual activity value of `NC(=O)c1cc2c(-c3cccc(-c4ccccc4)c3)cnc(N)c2s1` .
Response: 57

Prompt: Entry `O=C(Nc1ccccc1-c1cn2c(CN3CCNCC3)csc2n1)c1cnc2ccccc2n1` : reported residual activity = ?
Response: 93

Prompt: What value of residual activity has been reported for the following molecule? Nc1cccc2c1CN(C1CCC(=O)NC1=O)C2=O (centres undefined)
Response: 116

Prompt: Which residual activity reading was recorded for the molecule COc1cc(O)c2c(c1)[C@H]1OC1C[C@H](O)[C@H](O)C(=O)/C=C\C[C@H](C)OC2=O (some centres undefined) ?
Response: 104

Prompt: What measured residual activity goes with `NC1(c2ccc(-c3nc4ccn5c(=O)[nH]nc5c4cc3-c3ccccc3)cc2)CCC1` ?
Response: 85

Prompt: May I ask what residual activity has been recorded for `N#Cc1c(C2CCNCC2)cc(-c2c(O)cccc2OCC2CC2)nc1N` ?
Response: 78

Prompt: Return reported residual activity; argument: `COc1cc2ncn(-c3cc(OCc4ccccc4S(C)(=O)=O)c(C#N)s3)c2cc1OC`
Response: 80

Prompt: So what's the measured residual activity for this one? `NC(=O)c1c(NC(=O)C2CC2)sc2c1CCCC2`
Response: 91

Prompt: So what does the record say about residual activity for `NS(=O)(=O)OC[C@@H]1C[C@@H](n2ccc3c(N[C@H]4CCc5ccccc54)ncnc32)C[C@@H]1O` ?
Response: 127

Prompt: residual activity lookup needed for `COc1ccc(-n2ncc3cnc(Nc4cc(OC)c(OC)c(OCCCN5CCN(C)CC5)c4)nc32)cc1` , thanks.
Response: 73

Prompt: Could you tell me which residual activity is on file for `CCCCCc1ccc(/C=C/[C@H](O)[C@@H](CO)NC)cc1` ?
Response: 89

Prompt: Data request, read-out residual activity, for `O=c1c(O)c(-c2ccc(O)c(O)c2)oc2cc(O)c(O)c(O)c12`
Response: 95

Prompt: Reported residual activity, molecule `O=C(N[C@@H](COc1ccc2[nH]c(=O)[nH]c2c1)c1ccccc1)c1cccn(Cc2ccc(F)c(F)c2)c1=O` : ____
Response: 100

Prompt: // query residual activity value for entry `CN1C(=O)[C@@H](Cc2c[nH]c3ccccc23)NC1=S`
Response: 111

Prompt: Look up residual activity for this molecule: `O=C(O)c1ccc(-c2c[nH]c3ncc(-c4ccccc4)cc23)cc1C1CCCC1`
Response: 89

Prompt: Using the record for `COc1cc(C(=O)N2CCOCC2)c(F)cc1Nc1ncc(C(F)(F)F)c(NC2CC2)n1` , report its residual activity.
Response: 88

Prompt: Give its residual activity value. Item: `Cc1cc(NC(=O)c2cccc(NC(=O)/C=C/CN(C)C)c2)ccc1Nc1nccc(-c2cccnc2)n1`
Response: 95

* * *

Can you tell me residual activity for the items I'm about to list?
- tested_on: GSK3B (human) (UniProt P49841)
- Sequence (P49841 whole entry, looked up): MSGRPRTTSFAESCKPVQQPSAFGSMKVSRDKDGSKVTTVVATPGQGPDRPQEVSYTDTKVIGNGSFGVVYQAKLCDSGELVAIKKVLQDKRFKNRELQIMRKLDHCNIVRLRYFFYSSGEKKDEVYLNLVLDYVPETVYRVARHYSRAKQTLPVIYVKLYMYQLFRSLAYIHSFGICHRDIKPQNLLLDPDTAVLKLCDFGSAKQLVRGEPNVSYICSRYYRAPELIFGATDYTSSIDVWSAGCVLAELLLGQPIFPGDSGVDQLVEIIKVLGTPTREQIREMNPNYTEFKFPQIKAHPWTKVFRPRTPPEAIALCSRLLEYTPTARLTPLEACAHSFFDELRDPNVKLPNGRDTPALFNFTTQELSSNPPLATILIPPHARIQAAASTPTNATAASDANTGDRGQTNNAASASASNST
- test_protocol: radiometric filter-binding kinase assay
- conditions_used: compound 10.0 µM
Provide only the numeric value, understood in %.

Prompt: I am curious: what residual activity value has been reported for `CC(C)(C#N)c1ccc(N2C(=O)OCc3cnc4ccc(-c5cnc6ccccc6c5)cc4c32)cc1` ?
Response: 89

Prompt: Can you look up the measured residual activity of `CCCCCc1ccc(/C=C/[C@H](O)[C@@H](CO)NC)cc1` for me?
Response: 71

Prompt: Bench note: what residual activity did `COc1cc2ncn(-c3cc(OCc4ccccc4S(C)(=O)=O)c(C#N)s3)c2cc1OC` show?
Response: 68

* * *

- tested_on: MST4 (human) (UniProt Q9P289)
- Sequence (Q9P289 whole entry, looked up): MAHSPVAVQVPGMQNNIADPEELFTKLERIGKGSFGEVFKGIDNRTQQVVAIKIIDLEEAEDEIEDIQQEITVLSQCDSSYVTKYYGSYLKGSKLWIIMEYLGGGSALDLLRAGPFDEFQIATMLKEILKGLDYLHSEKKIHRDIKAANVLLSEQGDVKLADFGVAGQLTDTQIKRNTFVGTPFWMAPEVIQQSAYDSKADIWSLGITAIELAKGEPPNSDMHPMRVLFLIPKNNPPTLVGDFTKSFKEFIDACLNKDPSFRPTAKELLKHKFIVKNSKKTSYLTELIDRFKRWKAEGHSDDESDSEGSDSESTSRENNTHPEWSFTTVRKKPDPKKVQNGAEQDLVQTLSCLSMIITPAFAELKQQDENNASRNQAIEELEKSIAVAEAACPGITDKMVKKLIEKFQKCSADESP
- test_protocol: radiometric filter-binding kinase assay
- conditions_used: compound 1.0 µM
measured_property: residual activity (%)
API: value field is a number in %; no unit string.

Prompt: Consider the compound shown here: `Cc1ccc(-c2ccc3c(ccc4sc5c(c43)NC[C@@H](C)NC5=O)n2)cn1` What is its recorded residual activity?
Response: 101

Prompt: What value of residual activity has been reported for the following compound? `CCn1c(-c2nonc2N)nc2cncc(CNC3CCNCC3)c21`
Response: 81

Prompt: Item `CCCCCc1ccc(/C=C/[C@H](O)[C@@H](CO)NC)cc1` has what recorded residual activity?
Response: 96

Prompt: Sample `COc1cc(O)c2c(c1)/C=C/C[C@H](O)[C@H](O)C(=O)/C=C\C[C@H](C)OC2=O` — what was its residual activity?
Response: 72
